- experiment: Henry's Law constant (molality scale); of the first substance listed, at infinite dilution; mn = molality of the nth substance listed, in mol/kg
- experimental.conditions: 326.15 K; Liquid; Chromatography; m1 = 0
# if measured Henry's Law constant < 1000 kPa·kg/mol: class 1  # else: class 0

These recorded examples may help you get a feel for the data.
{"compound": "Clc1ccc(Cl)cc1 [1,4-dichlorobenzene] + O", "label": "class 1"}
{"compound": "Clc1ccccc1 [chlorobenzene] + O", "label": "class 0"}
{"compound": "CC1CCCCC1 [methylcyclohexane] + O", "label": "class 0"}
{"compound": "CCc1ccccc1 [ethylbenzene] + O", "label": "class 0"}
{"compound": "ClC(Cl)=C(Cl)Cl [tetrachloroethene] + O", "label": "class 0"}

Qu. Henry's Law constant under 1000 kPa·kg/mol? Item: C=Cc1ccccc1 [styrene] + O
Ans. class 1

###

- experiment: Henry's Law constant (molality scale); of the first substance listed, at infinite dilution; mn = molality of the nth substance listed, in mol/kg
- experimental.conditions: 310.15 K; Liquid; Chromatography; m1 = 0
# if measured Henry's Law constant < 400 kPa·kg/mol: true  # else: false

These recorded examples may help you get a feel for the data.
{"molecule": "Clc1ccccc1 [chlorobenzene] + O", "label": "false"}
{"molecule": "Cc1ccc(C)c(C)c1 [1,2,4-trimethylbenzene] + O", "label": "false"}
{"molecule": "ClCCCCl [1,3-dichloropropane] + O", "label": "true"}

Qu. Henry's Law constant under 400 kPa·kg/mol? Item: CC(C)c1ccccc1 [isopropylbenzene] + O
Ans. false

Qu. Henry's Law constant under 400 kPa·kg/mol? Item: Cc1ccccc1C [1,2-dimethylbenzene] + O
Ans. true

Qu. Henry's Law constant under 400 kPa·kg/mol? Item: Cl/C=C\CCl [(Z)-1,3-dichloro-1-propene] + O
Ans. true

Qu. Henry's Law constant under 400 kPa·kg/mol? Item: Cl/C=C/CCl [(E)-1,3-dichloro-1-propene] + O
Ans. true

Qu. Henry's Law constant under 400 kPa·kg/mol? Item: ClC(Br)Br [chlorodibromomethane] + O
Ans. true

Qu. Henry's Law constant under 400 kPa·kg/mol? Item: CCCCC(C)=O [2-hexanone] + O
Ans. true

Qu. Henry's Law constant under 400 kPa·kg/mol? Item: ClC(Cl)=C(Cl)Cl [tetrachloroethene] + O
Ans. false

Qu. Henry's Law constant under 400 kPa·kg/mol? Item: CCC(C)c1ccccc1 (stereo unspecified) [(1-methylpropyl)benzene] + O
Ans. false

###

- experiment: Henry's Law constant (molality scale); of the first substance listed, at infinite dilution; mn = molality of the nth substance listed, in mol/kg
- experimental.conditions: 274.15 K; Liquid; Chromatography; m1 = 0
The threshold is inclusive: Henry's Law constant of exactly 60 kPa·kg/mol counts as met; values below receive not met.

These recorded examples may help you get a feel for the data.
{"compound": "Cc1ccc(C)cc1 [1,4-dimethylbenzene] + O", "label": "met"}
{"compound": "CC1CCCCC1 [methylcyclohexane] + O", "label": "met"}
{"compound": "CCc1ccccc1 [ethylbenzene] + O", "label": "met"}
{"compound": "C=Cc1ccccc1 [styrene] + O", "label": "met"}

Qu. Item ClCC(Cl)Cl [1,1,2-trichloroethane] + O with Henry's Law constant of 60 kPa·kg/mol or above?
Ans. not met

Qu. Item Cc1cccc(C)c1 [1,3-dimethylbenzene] + O with Henry's Law constant of 60 kPa·kg/mol or above?
Ans. met

Qu. Item Clc1ccc(Cl)cc1 [1,4-dichlorobenzene] + O with Henry's Law constant of 60 kPa·kg/mol or above?
Ans. not met

Qu. Item BrCCBr [1,2-dibromoethane] + O with Henry's Law constant of 60 kPa·kg/mol or above?
Ans. not met

Qu. Item Cl/C=C\CCl [(Z)-1,3-dichloro-1-propene] + O with Henry's Law constant of 60 kPa·kg/mol or above?
Ans. not met

Qu. Item Clc1ccc(Cl)c(Cl)c1 [1,2,4-trichlorobenzene] + O with Henry's Law constant of 60 kPa·kg/mol or above?
Ans. not met

Qu. Item Cc1ccccc1 [toluene] + O with Henry's Law constant of 60 kPa·kg/mol or above?
Ans. met

Qu. Item CCC(C)c1ccccc1 (stereo not drawn) [(1-methylpropyl)benzene] + O with Henry's Law constant of 60 kPa·kg/mol or above?
Ans. met

###

- experiment: Henry's Law constant (molality scale); of the first substance listed, at infinite dilution; mn = molality of the nth substance listed, in mol/kg
- experimental.conditions: 320.15 K; Liquid; Chromatography; m1 = 0
Note to self: class labels come from recorded Henry's Law constant, ranges listed here: class 0: < 300 kPa·kg/mol; class 1: ≥ 300 kPa·kg/mol and < 400 kPa·kg/mol; class 2: ≥ 400 kPa·kg/mol

These recorded examples may help you get a feel for the data.
{"compound": "Clc1ccc(Cl)cc1 [1,4-dichlorobenzene] + O", "label": "class 2"}
{"compound": "BrCCBr [1,2-dibromoethane] + O", "label": "class 0"}
{"compound": "Clc1cccc(Cl)c1 [1,3-dichlorobenzene] + O", "label": "class 2"}
{"compound": "ClC(Br)Br [chlorodibromomethane] + O", "label": "class 1"}
{"compound": "ClCC(Cl)Cl [1,1,2-trichloroethane] + O", "label": "class 0"}
{"compound": "Clc1ccc(Cl)c(Cl)c1 [1,2,4-trichlorobenzene] + O", "label": "class 0"}
{"compound": "Cl/C=C\\CCl [(Z)-1,3-dichloro-1-propene] + O", "label": "class 1"}
{"compound": "CCCCC(C)=O [2-hexanone] + O", "label": "class 0"}

Qu. Which category does the recorded Henry's Law constant put ClCCCCl [1,3-dichloropropane] + O in?
Ans. class 0

###

- experiment: Henry's Law constant (molality scale); of the first substance listed, at infinite dilution; mn = molality of the nth substance listed, in mol/kg
- experimental.conditions: 331.15 K; Liquid; Chromatography; m1 = 0
Note to self: class labels come from recorded Henry's Law constant, ranges listed here: bin A = under 400 kPa·kg/mol, bin B = from 400 kPa·kg/mol up to 2000 kPa·kg/mol, bin C = 2000 kPa·kg/mol and over

{"compound": "Clc1ccccc1 [chlorobenzene] + O", "label": "bin B"}
{"compound": "Cc1ccc(C)cc1 [1,4-dimethylbenzene] + O", "label": "bin B"}

Qu. Which category does the recorded Henry's Law constant put CCCCC(C)=O [2-hexanone] + O in?
Ans. bin A

Qu. Which category does the recorded Henry's Law constant put C=Cc1ccccc1 [styrene] + O in?
Ans. bin B

Qu. Which category does the recorded Henry's Law constant put ClCCCCl [1,3-dichloropropane] + O in?
Ans. bin B

Qu. Which category does the recorded Henry's Law constant put CC(C)(C)c1ccccc1 [(1,1-dimethylethyl)benzene] + O in?
Ans. bin C

Qu. Which category does the recorded Henry's Law constant put Cl/C=C\CCl [(Z)-1,3-dichloro-1-propene] + O in?
Ans. bin B

Qu. Which category does the recorded Henry's Law constant put ClCC(Cl)Cl [1,1,2-trichloroethane] + O in?
Ans. bin B

Qu. Which category does the recorded Henry's Law constant put BrCCBr [1,2-dibromoethane] + O in?
Ans. bin A

###

- experiment: Henry's Law constant (molality scale); of the first substance listed, at infinite dilution; mn = molality of the nth substance listed, in mol/kg
- experimental.conditions: 326.15 K; Liquid; Chromatography; m1 = 0
List of Henry's Law constant values.
Please reply with the bare figure in kPa·kg/mol and do not write the unit itself.

Examples with answers:
{"compound": "CC(C)c1ccccc1 [isopropylbenzene] + O", "quantity.unit": "kPa·kg/mol", "Henry's Law constant": 3260}
{"compound": "Cc1cccc(C)c1 [1,3-dimethylbenzene] + O", "quantity.unit": "kPa·kg/mol", "Henry's Law constant": 2090}
{"compound": "CCC(C)c1ccccc1 (stereo unspecified) [(1-methylpropyl)benzene] + O", "quantity.unit": "kPa·kg/mol", "Henry's Law constant": 4160}
{"compound": "Cc1ccc(C)c(C)c1 [1,2,4-trimethylbenzene] + O", "quantity.unit": "kPa·kg/mol", "Henry's Law constant": 1770}
{"compound": "Cc1ccccc1C [1,2-dimethylbenzene] + O", "quantity.unit": "kPa·kg/mol", "Henry's Law constant": 1400}

Turning to the following compound.
Qu. May I ask what Henry's Law constant has been recorded for Cc1ccccc1 [toluene] + O ?
Ans. 1840

###

- experiment: Henry's Law constant (molality scale); of the first substance listed, at infinite dilution; mn = molality of the nth substance listed, in mol/kg
- experimental.conditions: 313.15 K; Liquid; Chromatography; m1 = 0
List of Henry's Law constant values.
Please reply with the bare figure in kPa·kg/mol and do not write the unit itself.

Qu. May I ask what Henry's Law constant has been recorded for Clc1cccc(Cl)c1 [1,3-dichlorobenzene] + O ?
Ans. 552

Qu. May I ask what Henry's Law constant has been recorded for CCc1ccccc1 [ethylbenzene] + O ?
Ans. 1290

Qu. May I ask what Henry's Law constant has been recorded for Cc1ccc(C)c(C)c1 [1,2,4-trimethylbenzene] + O ?
Ans. 974

Qu. May I ask what Henry's Law constant has been recorded for ClC(Cl)=C(Cl)Cl [tetrachloroethene] + O ?
Ans. 2240
